Sourced from the supplement of paper PMC9170038

Tested on: MS2 coat protein
assayText: apparent KD of MS2 coat protein; designed switch direction (-1 OFF switch, 1 ON switch): 1; higher = weaker reporter binding
conditionParameters: input ligand: FMN 200 uM
Listing: apparent KD of MS2 coat protein of selected sequences
measureName: apparent KD of MS2 coat protein (nM)

INSERT INTO results (polymersequence, systemundertest, recordedresult) VALUES
  ('ACAUGAGACCAAGGAUAUGUUGUACCUACAUGUGACAUGAGGAUCACCCAUGUGGUAAGUAUGAGACAGAAGGUGGAGAUAUGU [Equivalence 27 - Jieux - Same State NG 2] (Eterna round: R96, puzzle: Same State NG 2)', 'MS2 coat protein', 16.9),
  ('AAUAUUAAUGCAGGAUAUGAUUAACAUGAGGAUCACCCAUGUGGUGUUGUGAGUAAGGAGAGUGAUCAGAAGGGCAUUUUUUUU [JMF''s solution 36] (Eterna round: R96, puzzle: Same State NG 2)', 'MS2 coat protein', 648),
  ('UGCCUGAGUCGAGGAUAUUAUGGAUCAAUUAAUACAUGAGGAUCACCCAUGUAAUUAAUUUAACAUGAGAAGGCGACUCAGGCA [SSNG2/10-A2] (Eterna round: R96, puzzle: Same State NG 2)', 'MS2 coat protein', 7.88),
  ('CAGAGCCCAUGGGCCUGACAUGAGGAUCACCCAUGUGGCUUUGAGGAUAUAAGCGGAAACACCACUUAGAAGGCGAAGCCUAAC [Bequedbi] (Eterna round: R96, puzzle: Same State NG 3)', 'MS2 coat protein', 489),
  ('GCCGCGUUUCGCGCCUACAUGAGGAUCACCCAUGUUUGUAGGCAGGAUAUCGUCCGCUCUGCGGGCGAGAAGGGCUGUUGUGGG [salish99_SSNG3_R04_023] (Eterna round: R96, puzzle: Same State NG 3)', 'MS2 coat protein', 214),
  ('CAGUACAUUCAAGGAUAUUCUCCAUGGAAAGUAGAAGAAGGUGAAACAUGAGGAUCACCCAUGUAGAAAGGAACAUUCGUACUG [Eternabot solution 34] (Eterna round: R96, puzzle: Same State NG 1)', 'MS2 coat protein', 181),
  ('ACAUGAGAAGGAGGAUAUUUUGUACCUACAUGUGACAUGAGGAUCACCCAUGUGGUAAGUAUGAGAAAGAAGGCCUAGAUAUGU [Equivalence 15 - Jieux - Same State NG 2] (Eterna round: R96, puzzle: Same State NG 2)', 'MS2 coat protein', 21.3),
  ('AUUAAACAUGAGGAUCACCCAUGUCAACAAAGUCGAGGAUAUGGGCAAAUAAAAUAAGUACCAGAAGGCGAAUAAU [salish99_ss1_r3_066] (Eterna round: R96, puzzle: Same State 1)', 'MS2 coat protein', 21.4),
  ('UGUACAUGAGGAUCACCCAUGUCUAGACAUGUUAAUAUAAUGUAGGAUAUAUAAAAUUUAAAUUAAUAGAAGGACAAUUUUUUU [JMF''s solution 2] (Eterna round: R96, puzzle: Same State NG 3)', 'MS2 coat protein', 113),
  ('AAUUAAUUAAUUAAGUACAUGAGGAUCACCCAUGUAAGUGAUCAGGAUAUCAGCUCGAAUAGAGCUGAGAAGGGAUCCAUGUAC [SSNG3/15-A1] (Eterna round: R96, puzzle: Same State NG 3)', 'MS2 coat protein', 332),
  ('UGGUACAUGGGAGGAUAUCAUGUAGAAACAUGAGGAUCACCCAUGUAGAUGGCAGCUUUGCUGAAUGAGAAGGCCCAUGUACCU [JL SSNG1 3.58] (Eterna round: R96, puzzle: Same State NG 2)', 'MS2 coat protein', 15.6),
  ('GGUGGGUUGCUACCGACACAUGAGGAUCACCCAUGUUUUGGGAAGGAUAUGGUACCUAUUUGGUACCAGAAGGUCCCGUUGGUG [salish99_SSNG3_r04_707] (Eterna round: R96, puzzle: Same State NG 3)', 'MS2 coat protein', 136),
  ('AGCCGAGACUGAGGAUAUUUGUAUCUACAUGAGGAUCACCCAUGUAGCAACACGUGGUAGUGAUCGAAGAAGGCAGCUCGGCGC [MOD2 of Omei''s SS(NG)2 Cv2] (Eterna round: R96, puzzle: Same State NG 2)', 'MS2 coat protein', 54),
  ('AUUAUUUGUGCAGGAUAUGAUUAACAUGAGGAUCACCCAUGUGGUGUUGUGAGUAAGGAGAGUGAUCAGAAGGGCAUUUUUUUU [JMF''s solution 61] (Eterna round: R96, puzzle: Same State NG 2)', 'MS2 coat protein', 590);

====

Test system: MS2 coat protein
assayText: apparent KD of MS2 coat protein; designed switch direction (-1 OFF switch, 1 ON switch): -1; higher = weaker reporter binding
conditionParameters: Eterna round: R95; input ligand: microRNA oligo, concentration not stated
The recorded apparent KD of MS2 coat protein of each item maps onto one of these classes: 1 = under 30 nM, 2 = from 30 nM up to 100 nM, 3 = 100 nM and over

INSERT INTO measurements (polymersequence, category) VALUES
  ('UCAAGUAUGUAGGAUAUCGAUGUCUACGGACAUCGAGAAGGACGUACAUGAGGAUCACCCAUGUAACUUGCAUG [Exclusion 6 - B - 10:d] (puzzle: Exclusion 6)', 2),
  ('CUUAGACAUGAGGAUCACCCAUGUGAGGAUAUGAAAUUAAUUAAUUAUUAAUUAUUAAUCAGAAGGCACAUAUG [Mat - Mod of Hyphema D38] (puzzle: Exclusion 1)', 2),
  ('AGAAGUAGGAACCGAUCCUACAUGAGGAUCACCCAUGUAGCAAGACGUGCACGCGAAGCUCGUCAGACUACCAGAUG [salish99_TOv1_r3_021] (puzzle: Sensor v3, turn-off variant 1)', 3),
  ('CGUGACUCAGGAUAUCUAUAGUAUCACAUGAGGAUCACCCAUGUCCAGCGAAAGCUGGAGGGAGAAGGGAGUCACG [Fiskers Ex 5 - 42] (puzzle: Exclusion 5)', 3),
  ('GCAAUGAGUGUGAGGAUAUGCUGGUCCUUGGAUCAGCAGAAGGCACAUGAGGAUCACCCAUGUGAAAACAUUGC [Mat - Exclusion 4 - JL Mod - D63] (puzzle: Brourd''s mod of Exclusion 4)', 1),
  ('GGAUCACGAGGAUAUCGAUUUUAGUACAUGAGGAUCACCCAUGUUGUCCAGGUCUCGAUUCGAGAAGGCGUGAUUC [LRO-Ex5-05] (puzzle: Exclusion 5)', 2),
  ('GUGUACAGAGGAUAUACUUAUGGAGUCACGAAAGUGGCUUCACAUGAGGAUCACCCAUGUAGAAGGCUGUACAC [Dot plot directed v11] (puzzle: Exclusion 2)', 1),
  ('UUUUAACAUGAGGAUCACCCAUGUGAGGAUAUCGAAAUUUAUAUUAAUAUUAAUUUUUCGAGAAGGCACAUUUU [JMF 33] (puzzle: Exclusion 1)', 3),
  ('AAAACACAUGAGGAUCACCCAUGUGAGGAUAUGUUCAUGUUCAGCAAACUGAACAUGAACAGAAGGCACAUAAA [JR_Exclusion1_Sub016] (puzzle: Exclusion 1)', 2);

====

System: MS2 coat protein
assayText: apparent KD of MS2 coat protein, switch ON state; designed switch direction (-1 OFF switch, 1 ON switch): -1; higher = weaker reporter binding
conditionParameters: FMN input: 0 or 200 uM; Eterna round: R93 (includes R88 designs)
Label yes (1) when apparent KD of MS2 coat protein is at or above 30 nM; anything below gets no (0).

INSERT INTO results (polymersequence, systemundertest, category) VALUES
  ('AAAAAGUGAGGAUAUACAUGAGGAUCACCCAUGUAAAAGGUCGCGGGAGCGGAGGACGGUAGAAGGCGCAAAAA [Excls3-VIIi]', 'MS2 coat protein', 'no (0)'),
  ('AACAAGUGAGGAUAUCUGGAUAGGAAAAAGAAAACCUAUCCAGAGAAGGCACAUGAGGAUCACCCAUGUAAAAA [JL cataway mod 6]', 'MS2 coat protein', 'yes (1)'),
  ('AACAGUACAGGAUAUACAUGAGGAUCACCCAUGUGAAAAUUAAGUGGAGAACCACAAAGUAGAAGGGUACUGAA [Mat - Exclusion 3 - Eli mod - D57]', 'MS2 coat protein', 'no (0)'),
  ('AAAAAACAUGAGGAUCACCCAUGUGAGGAUAUCUGUAUCCAAAAGGAAGUGUAGGAUCAGAGAAGGCACUAGGA [Power strip]', 'MS2 coat protein', 'yes (1)'),
  ('UUAAAACAUGAGGAUCACCCAUGUGAGGAUAUGCAAUACUAAUAUUAAAAUAAUUAUAGCAGAAGGCACAUAGU [JR_EXc001_Sub802]', 'MS2 coat protein', 'no (0)'),
  ('AAGAAGCAAGGAUAUACAUGAGGAUCACCCAUGUAAAAGAAAGAAAGGGAAAAGAAAAGUAGAAGGUGCAAGAA [Titkheperure Pasebakhenniut II]', 'MS2 coat protein', 'yes (1)'),
  ('AAAAAACAUGAGGAUCACCCAUGUAAGGAUAUGCUGAAAAACACGGAAAAACGUGACAGCAGAAGGUACAAAAG [Mat - Exclusion 1 - Eli mod - D93]', 'MS2 coat protein', 'no (0)'),
  ('CUCUUGUCAGGAUAUAGAAGAAAAGAAAAGAAAGAAAAGAACUAGAAGGGACAUGAGGAUCACCCAUGUAAGAA [EteRNA is fun!]', 'MS2 coat protein', 'yes (1)');
